Task for the reader: assign each of the following compounds its reported pKi.
- test_system: UniProt:P61169
- Sequence (P61169 whole entry): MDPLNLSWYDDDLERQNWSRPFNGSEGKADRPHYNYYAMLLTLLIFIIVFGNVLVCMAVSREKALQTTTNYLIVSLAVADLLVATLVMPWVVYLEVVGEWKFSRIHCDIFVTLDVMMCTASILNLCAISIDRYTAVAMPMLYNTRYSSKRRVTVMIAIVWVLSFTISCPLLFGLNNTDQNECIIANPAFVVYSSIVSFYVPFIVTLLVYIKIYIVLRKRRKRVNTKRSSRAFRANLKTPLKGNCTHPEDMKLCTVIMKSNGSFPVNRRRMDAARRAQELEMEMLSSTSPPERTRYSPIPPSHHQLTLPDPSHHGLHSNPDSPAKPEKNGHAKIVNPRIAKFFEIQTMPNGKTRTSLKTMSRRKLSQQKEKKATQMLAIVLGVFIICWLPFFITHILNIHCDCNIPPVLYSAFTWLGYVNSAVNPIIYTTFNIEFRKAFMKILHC
- test_description: Affinity towards Dopamine receptor D2 in rat striatum using [3H]spiperone as radioligand
- Format: tissue-based
pKi: −log10 of the molar value.

Which measured pKi value corresponds to COc1cc(N)c(Cl)cc1C(=O)NC1CCN2CCCC1C2 (stereo not drawn) [RENZAPRIDE] ? < 5.00

Which measured pKi value corresponds to COc1cc(N)c(Cl)cc1C(=O)NCCN(C)Cc1ccccc1 ? 7.61

Which measured pKi value corresponds to CCOc1cc(N)c(Cl)cc1C(=O)NCC1CN(Cc2ccc(F)cc2)CCO1 (stereo not drawn) [MOSAPRIDE] ? < 5.00
